# Test system: Fibroblast
# experiment.notes: Multiplex assay against human fibroblast
# Format: toxicity, cell-based
# measurement.conditions: 24 h, 10 µM, compound concentration 10 uM, replicate 2
experimental.endpoint: Population Membrane Permeable-Phenotype (%)
One number for each entry, in %.

Please review the entries below; each comes with its answer.
[
  {
    "compound": "Cc1nc2ccc(Oc3ccc(F)cc3)cc2c(=O)n1C[C@H]1CCCN(C(C)C)C1.Cl",
    "target.of.assay": "Fibroblast",
    "value.units": "%",
    "meas.value": 1
  },
  {
    "compound": "CN(C)CCCc1cc(C(=O)Nc2ccc(-c3ccncc3)cc2)ccc1O.Cl.Cl",
    "target.of.assay": "Fibroblast",
    "value.units": "%",
    "meas.value": 5
  },
  {
    "compound": "CN1CCN(c2nc3cc(C(F)(F)F)ccc3n3cccc23)CC1.O=C(O)/C=C\\C(=O)O.O=C(O)/C=C\\C(=O)O",
    "target.of.assay": "Fibroblast",
    "value.units": "%",
    "meas.value": 6
  },
  {
    "compound": "Cc1ccc(C(C)(O)c2nc3ccccc3s2)c(C)c1 (centres undefined)",
    "target.of.assay": "Fibroblast",
    "value.units": "%",
    "meas.value": 12
  },
  {
    "compound": "CN1CCN2c3ncccc3Cc3ccccc3C2C1 (centres undefined)",
    "target.of.assay": "Fibroblast",
    "value.units": "%",
    "meas.value": 15
  }
]

Give me Population Membrane Permeable-Phenotype (%) for each of these compounds, listed below.
1. O=C(NCC(=O)N1CC[C@H](N[C@H]2CC[C@@](O)(c3ccc(-c4ncccn4)cn3)CC2)C1)c1cccc(C(F)(F)F)c1
2. CCNC1(C(N)=O)CCN(c2ncnc3c2nc(-c2ccccc2Cl)n3-c2ccc(Cl)cc2)CC1

## Output
1: 6; 2: 7

Give me Population Membrane Permeable-Phenotype (%) for each of these compounds, listed below.
1. Cc1ccccc1C(=O)Nc1ccc(C(=O)N2CCCC(N(C)C)c3ccccc32)cc1.Cl (centres undefined)
2. CNC[C@H](O)c1ccc(O)c(O)c1 [EPINEPHRINE]

## Output
9
12

====

# System: U2OS
# experiment.notes: Multiplex assay against U2OS
# Type: toxicity, cell-based
# measurement.conditions: human, 24 h, 1 µM, compound concentration 1 uM, replicate 1
experimental.endpoint: Population Apoptotic (%)
Numbers only, in %.

Please review the entries below; each comes with its answer.
[
  {
    "structure": "Cc1ccc(/C(=C\\CN2CCCC2)c2ccccn2)cc1",
    "meas.value": 89
  },
  {
    "structure": "O=C(O)c1cc2ccccc2c(Cc2c(O)c(C(=O)O)cc3ccccc23)c1O",
    "meas.value": 92
  },
  {
    "structure": "Cc1ccc(F)cc1C(=O)Nc1ccc(C(=O)N2Cc3cccn3Cc3ccccc32)c(Cl)c1",
    "meas.value": 86
  },
  {
    "structure": "CC(=O)NCCc1c(Cc2ccccc2)[nH]c2ccccc12",
    "meas.value": 90
  },
  {
    "structure": "CC[C@H]1OC(=O)[C@H](C)[C@@H](O[C@H]2C[C@@](C)(OC)[C@@H](O)[C@H](C)O2)[C@H](C)[C@@H](O[C@@H]2O[C@H](C)C[C@H](N(C)C)[C@H]2O)[C@@]2(C)CC(C)=C(O2)[C@H](C)[C@@H](O)[C@]1(C)O",
    "meas.value": 65
  },
  {
    "structure": "O=C1COc2nccc(-c3ccccc3F)c2CN1Cc1cc(C(F)(F)F)cc(C(F)(F)F)c1",
    "meas.value": 86
  },
  {
    "structure": "N[C@@]1(C(=O)O)CO[C@H]2[C@H](C(=O)O)[C@H]21",
    "meas.value": 88
  }
]

Now take the following compound into account.
Value of Population Apoptotic (%) reported for the compound `CN(C)CCCc1cc(C(=O)Nc2ccc(-c3ccncc3)cc2)ccc1O.Cl.Cl` is 100

====

I'd appreciate it if you could supply Population Normal (%) values for the items below.
# Tested on: Fibroblast
# experiment.notes: Multiplex assay against human fibroblast
# Type: toxicity, cell-based
# measurement.conditions: 24 h, 1 µM, compound concentration 1 uM, replicate 2
Please report the result as a number followed by the unit.

Please review the entries below; each comes with its answer.
[
  {
    "molecule": "N[C@@]1(C(=O)O)CO[C@H]2[C@H](C(=O)O)[C@H]21 [LY-379268]",
    "meas.value": "89%"
  },
  {
    "molecule": "CN1CCN2c3ncccc3Cc3ccccc3C2C1 (centres undefined) [MIRTAZAPINE]",
    "meas.value": "99%"
  },
  {
    "molecule": "O=C(O)Cc1ccccc1Nc1c(Cl)cccc1Cl [DICLOFENAC]",
    "meas.value": "96%"
  },
  {
    "molecule": "CC1(COc2ccc3c(c2)ncn3-c2ccc3cccc(N4CCC(N)CC4)c3n2)COC1 [CRENOLANIB]",
    "meas.value": "98%"
  },
  {
    "molecule": "CC(=O)NCCc1c(Cc2ccccc2)[nH]c2ccccc12 [LUZINDOLE]",
    "meas.value": "94%"
  },
  {
    "molecule": "N#Cc1c(N)nc(SCc2csc(-c3ccc(Cl)cc3)n2)c(C#N)c1-c1ccc(OCCO)cc1 [CAPADENOSON]",
    "meas.value": "95%"
  },
  {
    "molecule": "COc1c(C)cc(NC(=O)c2nn(Cc3ccc(F)cc3)c3c2CN(C(=O)c2ccc[nH]2)C[C@]3(C)C(N)=O)cc1C",
    "meas.value": "93%"
  },
  {
    "molecule": "CCCn1c(=O)c2[nH]c(C3CCCC3)nc2n(CCC)c1=O",
    "meas.value": "96%"
  },
  {
    "molecule": "Cc1nc2ccc(Oc3ccc(F)cc3)cc2c(=O)n1C[C@H]1CCCN(C(C)C)C1.Cl",
    "meas.value": "92%"
  },
  {
    "molecule": "COc1cc(C(=O)N(CCCc2ccccc2)Cc2ccc(CC(=O)O)cc2)cc(OC)c1C",
    "meas.value": "95%"
  }
]

Give me Population Normal (%) for each of these molecules, listed below.
1. Cc1ccccc1C(=O)Nc1ccc(C(=O)N2CCCC(N(C)C)c3ccccc32)cc1.Cl (centres undefined)
2. CN(C)c1ccnc2sc3c(=O)n(N4CCCCCC4)cnc3c12
3. O=S(=O)(c1ccccc1)c1cnc2c(N3CCNCC3)cccc2c1 [INTEPIRDINE]
4. Cc1ccc(F)cc1C(=O)Nc1ccc(C(=O)N2Cc3cccn3Cc3ccccc32)c(Cl)c1 [LIXIVAPTAN]

## Output
1: 94%; 2: 97%; 3: 99%; 4: 96%

====

# Tested on: HEK-293T
# experiment.notes: Multiplex assay against HEK293T
# Type: toxicity, cell-based
# measurement.conditions: human, 24 h, 10 µM, compound concentration 10 uM, replicate 2
Assign labels as follows, please: TRUE for Population Normal (%) below 90%; FALSE for Population Normal (%) equal to or exceeding 90%.

## Input Consider the compound `CCCC(CCC)C(=O)O` . Is its Population Normal (%) strictly less than 90%?
## Output FALSE

## Input Consider the compound `CN(C)c1ccnc2sc3c(=O)n(N4CCCCCC4)cnc3c12` . Is its Population Normal (%) strictly less than 90%?
## Output TRUE

====

# Tested on: HEK-293T
# experiment.notes: Multiplex assay against HEK293T
# Format: toxicity, cell-based
# measurement.conditions: human, 12 h, 10 µM, compound concentration 10 uM, replicate 2
Label true (1) for high-side Population Apoptotic (%) (at or above 60%) and false (0) for low-side Population Apoptotic (%) (below it).

[
  {
    "molecule": "COc1ccc2c(c1)C(C(=O)N(Cc1ccc(N(C)C)cc1)c1ccc(C(C)C)cc1)CCC2.Cl (stereo not drawn)",
    "class": "true (1)"
  },
  {
    "molecule": "CCCC(CCC)C(=O)O [VALPROIC ACID]",
    "class": "false (0)"
  },
  {
    "molecule": "Cc1ccc(C(C)(O)c2nc3ccccc3s2)c(C)c1 (stereo not drawn)",
    "class": "false (0)"
  },
  {
    "molecule": "CNC[C@H](O)c1ccc(O)c(O)c1 [EPINEPHRINE]",
    "class": "false (0)"
  },
  {
    "molecule": "CN1CCN(c2nc3cc(C(F)(F)F)ccc3n3cccc23)CC1.O=C(O)/C=C\\C(=O)O.O=C(O)/C=C\\C(=O)O",
    "class": "true (1)"
  },
  {
    "molecule": "CC(=O)NCCc1c(Cc2ccccc2)[nH]c2ccccc12 [LUZINDOLE]",
    "class": "false (0)"
  },
  {
    "molecule": "N#Cc1c(N)nc(SCc2csc(-c3ccc(Cl)cc3)n2)c(C#N)c1-c1ccc(OCCO)cc1 [CAPADENOSON]",
    "class": "true (1)"
  },
  {
    "molecule": "COc1ccccc1N1CCN(CCCCNC(=O)c2ccc3ccccc3c2)CC1.Cl",
    "class": "true (1)"
  }
]

## Input Tell me whether Population Apoptotic (%) is at least 60% here: Cc1ccccc1C(=O)Nc1ccc(C(=O)N2CCCC(N(C)C)c3ccccc32)cc1.Cl (stereo not drawn)
## Output true (1)

## Input Tell me whether Population Apoptotic (%) is at least 60% here: c1cc(OCCCN2CCCCC2)ccc1CN1CCCCC1 [JNJ-5207852]
## Output true (1)

## Input Tell me whether Population Apoptotic (%) is at least 60% here: `CCCn1c(=O)c2[nH]c(C3CCCC3)nc2n(CCC)c1=O`
## Output false (0)
